Biological target: NAD-dependent protein deacetylase sirtuin-1 (Homo sapiens, UniProt Q96EB6)
Sequence (Q96EB6 whole entry): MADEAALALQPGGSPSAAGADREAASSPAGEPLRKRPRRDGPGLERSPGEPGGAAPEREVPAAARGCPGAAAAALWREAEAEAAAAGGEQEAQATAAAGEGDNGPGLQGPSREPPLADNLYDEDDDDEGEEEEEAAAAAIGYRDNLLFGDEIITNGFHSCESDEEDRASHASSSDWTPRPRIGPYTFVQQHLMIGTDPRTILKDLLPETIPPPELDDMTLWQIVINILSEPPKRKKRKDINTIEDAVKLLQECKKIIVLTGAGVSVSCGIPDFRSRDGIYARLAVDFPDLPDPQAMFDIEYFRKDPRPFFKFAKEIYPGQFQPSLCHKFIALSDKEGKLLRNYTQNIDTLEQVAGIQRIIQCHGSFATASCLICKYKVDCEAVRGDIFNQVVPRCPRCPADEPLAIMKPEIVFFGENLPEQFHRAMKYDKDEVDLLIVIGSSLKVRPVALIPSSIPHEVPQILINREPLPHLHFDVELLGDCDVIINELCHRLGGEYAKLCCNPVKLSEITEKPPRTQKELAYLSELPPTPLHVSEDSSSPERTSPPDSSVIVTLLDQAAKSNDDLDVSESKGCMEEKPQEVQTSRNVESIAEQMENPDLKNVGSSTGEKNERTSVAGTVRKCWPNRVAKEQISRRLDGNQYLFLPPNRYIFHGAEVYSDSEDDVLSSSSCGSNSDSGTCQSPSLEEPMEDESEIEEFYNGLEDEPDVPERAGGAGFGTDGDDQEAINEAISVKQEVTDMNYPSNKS
Assay: Inhibition of human SIRT1
pIC50: −log10 of the molar value.

Smiles Notation	Assayed Target	pIC50
N#C/C(=C\c1ccc(-c2cc(Cl)ccc2Cl)o1)C(=O)Nc1cccc2ncccc12	NAD-dependent protein deacetylase sirtuin-1 (Homo sapiens, UniProt Q96EB6)	< 4.30
O=C(Nc1cccc(Br)c1)c1cccc(S(=O)(=O)N2CCCCCC2)c1	NAD-dependent protein deacetylase sirtuin-1 (Homo sapiens, UniProt Q96EB6)	< 4.30

====

Biological target: NAD-dependent protein deacetylase sirtuin-3, mitochondrial (Homo sapiens, UniProt Q9NTG7)
Sequence (Q9NTG7 whole entry): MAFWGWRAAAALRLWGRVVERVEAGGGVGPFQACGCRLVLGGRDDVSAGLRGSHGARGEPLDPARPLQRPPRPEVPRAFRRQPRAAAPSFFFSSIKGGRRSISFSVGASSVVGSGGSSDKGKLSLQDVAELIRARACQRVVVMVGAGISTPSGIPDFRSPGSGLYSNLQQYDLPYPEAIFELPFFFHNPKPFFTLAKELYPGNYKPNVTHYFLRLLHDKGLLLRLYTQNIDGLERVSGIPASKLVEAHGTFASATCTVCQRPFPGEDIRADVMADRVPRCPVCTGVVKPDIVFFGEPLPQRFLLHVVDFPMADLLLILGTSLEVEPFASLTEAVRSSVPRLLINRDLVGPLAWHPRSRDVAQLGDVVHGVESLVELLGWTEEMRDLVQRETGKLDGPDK
Assay: Inhibition of human SIRT3

Smiles Notation	IC50
O=C(Nc1cccc(Br)c1)c1cccc(S(=O)(=O)N2CCCCCC2)c1	> 50 µM

====

Listed next: entries and their corresponding inhibition.
Target: UniProt:Q8IXJ6
Experiment: Inhibition of GST-tagged human recombinant SIRT2 (34 to 356 residues) expressed in Escherichia coli BL21 at 10 uM using Fluor de Lys-SIRT as substrate incubated for 60 mins prior to substrate addition measured after 45 mins by fluorimetric analysis

Smiles Notation	Assayed Target	Reading Unit	inhibition
COc1ccc(C(=O)Nc2cccc(NC(=O)c3cccc(Br)c3)c2)cc1	UniProt:Q8IXJ6	%	4
Cc1cccc(C(=O)Nc2cccc(NC(=O)c3ccccc3Br)c2)c1	UniProt:Q8IXJ6	%	18
O=C(Nc1ccccc1)c1cccc(-c2ccc3ccccc3c2)c1	UniProt:Q8IXJ6	%	21

====

Listed next: entries and their corresponding inhibition.
Target: UniProt Q8IXJ6
Sequence (whole entry): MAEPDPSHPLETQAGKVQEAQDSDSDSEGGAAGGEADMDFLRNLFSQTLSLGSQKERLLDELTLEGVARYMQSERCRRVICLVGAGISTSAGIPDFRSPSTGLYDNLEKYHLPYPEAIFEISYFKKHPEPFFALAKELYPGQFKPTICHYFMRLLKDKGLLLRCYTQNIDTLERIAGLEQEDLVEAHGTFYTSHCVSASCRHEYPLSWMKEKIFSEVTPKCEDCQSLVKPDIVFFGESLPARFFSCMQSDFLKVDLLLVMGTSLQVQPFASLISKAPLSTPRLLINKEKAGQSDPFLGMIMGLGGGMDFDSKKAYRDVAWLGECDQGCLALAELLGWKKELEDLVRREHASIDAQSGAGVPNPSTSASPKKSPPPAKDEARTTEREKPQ
Experiment: Inhibition of GST-tagged human recombinant SIRT2 (34 to 356 residues) expressed in Escherichia coli BL21 at 50 uM using Fluor de Lys-SIRT as substrate incubated for 60 mins prior to substrate addition measured after 45 mins by fluorimetric analysis

Smiles Notation	Reading Unit	inhibition
COc1cccc(C(=O)Nc2cccc(NC(=O)c3ccccc3Br)c2)c1	%	19
Cc1cccc(C(=O)Nc2cccc(NC(=O)c3ccccc3Br)c2)c1	%	24
O=C(Nc1cccc(NC(=O)c2cc(C(F)(F)F)cc(C(F)(F)F)c2)c1)c1cccc(Br)c1	%	12
O=C(Nc1cccc(NC(=O)c2ccccc2Br)c1)c1ccccc1	%	28
COc1ccccc1C(=O)Nc1cccc(NC(=O)c2ccccc2Br)c1	%	28
O=C(Nc1cccc(NC(=O)c2ccccc2Br)c1)c1ccccc1Br	%	49
O=C(Nc1cccc(-c2ccc3ccccc3c2)c1)c1ccccc1Br	%	56
COc1ccc(C(=O)Nc2cccc(NC(=O)c3cccc(Br)c3)c2)cc1	%	0
O=C(Nc1cccc(NC(=O)c2cccc(Br)c2)c1)c1cccc(Br)c1	%	12
COc1cccc(NC(=O)c2cccc(-c3ccc4ccccc4c3)c2)c1	%	66
Cc1ccccc1C(=O)Nc1cccc(NC(=O)c2ccccc2Br)c1	%	0

====

Target: NAD-dependent protein deacetylase sirtuin-2 (Homo sapiens, UniProt Q8IXJ6)
Assay: Inhibition of GST-tagged human recombinant SIRT2 (34 to 356 residues) expressed in Escherichia coli BL21 using Fluor de Lys-SIRT as substrate incubated for 60 mins prior to substrate addition measured after 45 mins by fluorimetric analysis
Listed next: entries and their corresponding IC50.

Smiles Notation	IC50 [µM]
O=C(Nc1ncccn1)c1cccc(-c2ccc3ccccc3c2)c1	13
COc1ccccc1NC(=O)c1cccc(-c2ccc3ccccc3c2)c1	11
O=C(Nc1nccs1)c1cccc(-c2ccc3ccccc3c2)c1	12

These data points were gathered from ChEMBL document CHEMBL3352569.
